B1: library; numbered along this chain (parent)
chain: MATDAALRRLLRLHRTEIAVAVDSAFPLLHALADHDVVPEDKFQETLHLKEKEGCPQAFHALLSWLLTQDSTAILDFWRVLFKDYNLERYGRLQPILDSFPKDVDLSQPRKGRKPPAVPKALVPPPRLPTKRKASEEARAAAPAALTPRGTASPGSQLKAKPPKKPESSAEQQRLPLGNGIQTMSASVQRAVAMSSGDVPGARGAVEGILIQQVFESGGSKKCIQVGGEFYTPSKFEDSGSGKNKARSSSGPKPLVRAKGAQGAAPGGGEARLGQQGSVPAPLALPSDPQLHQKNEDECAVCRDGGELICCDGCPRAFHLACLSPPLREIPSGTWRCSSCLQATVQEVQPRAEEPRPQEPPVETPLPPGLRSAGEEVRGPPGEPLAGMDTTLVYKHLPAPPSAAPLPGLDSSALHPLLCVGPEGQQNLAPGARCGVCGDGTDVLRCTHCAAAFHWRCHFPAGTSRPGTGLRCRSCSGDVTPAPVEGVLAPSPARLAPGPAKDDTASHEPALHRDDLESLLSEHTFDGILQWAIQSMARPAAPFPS

# Variants of: B1
# test-name: AIRE transcriptional activation functional score (insulin promoter-GFP; nonsense median 0, synonymous median 1) (normalised score); higher = higher AIRE activity (more reporter activation)
# setup-conditions: with insulin promoter-GFP reporter in HEK293
Cut-off 0.9 on AIRE transcriptional activation functional score, inclusive. At or above means fulfilled; below means not fulfilled.

mutation-annotation	class
F43I	not fulfilled
L255H	fulfilled
A145E	not fulfilled
V214M	not fulfilled
K395R	not fulfilled

Q) // inclusive: AIRE transcriptional activation functional score at least 0.9? input: `V20R`
A) not fulfilled

Q) // inclusive: AIRE transcriptional activation functional score at least 0.9? input: `A399Q`
A) not fulfilled

Q) // inclusive: AIRE transcriptional activation functional score at least 0.9? input: `P56V`
A) not fulfilled

Q) // inclusive: AIRE transcriptional activation functional score at least 0.9? input: `A343M`
A) fulfilled
